B1: ANKRD40 (parent)
chain: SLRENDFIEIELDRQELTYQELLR

Variants of: B1
test_description: protein stability index of a GFP-peptide fusion (GPS, HEK-293T) (PSI 1-6); higher = more stable;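 note: lentivirally expressed fusions sorted by FACS into six bins by GFP to DsRed ratio, PSI derived from sequencing read proportions per bin multiplied by bin number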
experimental_context: c terminus: a fixed tail appended
measure: protein stability index

1) SLREEDFIEIELDRQELTYQELLR [N5E] : 2.78
2) SLRENDFIEIELDRQEGTYQELLR [L17G] : 3.3
3) SLRENDFAEIELDRQELTYQELLR [I8A] : 3.83
4) SLRENDFVEIELDRQELTYQELLR [I8V] : 3.62
5) SLRENDFISIELDRQELTYQELLR [E9S] : 2.73
6) SLRENDFIEVELDRQELTYQELLR [I10V] : 3.32
7) SLRENDFIEIELDRQELTYQEYLR [L22Y] : 2.9
8) SLRENDFIEIELDRQFLTYQELLR [E16F] : 2.5
9) SLRENDFIEIELDRYELTYQELLR [Q15Y] : 2
10) STRENDFIEIELDRQELTYQELLR [L2T] : 3
11) SLRENDFIEIELDHQELTYQELLR [R14H] : 2.97
12) SLRENDFSEIELDRQELTYQELLR [I8S] : 3.34
13) SLRENDGIEIELDRQELTYQELLR [F7G] : 4.18
14) SLRENDKIEIELDRQELTYQELLR [F7K] : 4.2
15) SVRENDFIEIELDRQELTYQELLR [L2V] : 3.12
16) SLRENDFIEIELDRQELTYQDLLR [E21D] : 2.85
17) SLRENDFIEIETDRQELTYQELLR [L12T] : 3.88
18) SLRENDFIEIELDRQELTYQEKLR [L22K] : 3.97
19) SLRNNDFIEIELDRQELTYQELLR [E4N] : 2.92
20) SLRENMFIEIELDRQELTYQELLR [D6M] : 1.66
21) SLRENDFIELELDRQELTYQELLR [I10L] : 3.16
22) VLRENDFIEIELDRQELTYQELLR [S1V] : 3.17
23) SLGENDFIEIELDRQELTYQELLR [R3G] : 3.26
24) SLRENDFIEIELDRQELTYQELER [L23E] : 3.99
25) SLRENDFIEIELDRAELTYQELLR [Q15A] : 2.63
26) SLRENDFIEIELDRQETTYQELLR [L17T] : 3.35
27) SLRENDFIEIELDRQELTFQELLR [Y19F] : 2.31
28) SLRENDFIRIELDRQELTYQELLR [E9R] : 1.97
29) SLRENDIIEIELDRQELTYQELLR [F7I] : 2.91
30) SLRENDFIEIELDRQELTYQELQR [L23Q] : 3.94
31) SLRENDFIEIRLDRQELTYQELLR [E11R] : 2.44
32) SLRENDFIEIELDRVELTYQELLR [Q15V] : 2.44
33) SLRENDFYEIELDRQELTYQELLR [I8Y] : 3.28
34) SLRENDFIEIELDRQELTYQELRR [L23R] : 3.75
35) SLRENDHIEIELDRQELTYQELLR [F7H] : 3.96
36) SLRENDFIEIELDRQELTYNELLR [Q20N] : 2.65
37) SLRENDFIEIELDRWELTYQELLR [Q15W] : 2.37
38) SLRENDFIEIELDRQELTYQQLLR [E21Q] : 3.34
39) SLRENLFIEIELDRQELTYQELLR [D6L] : 2.15
40) SLRENDFIEIELDRQELTYQEWLR [L22W] : 2.86
41) SLRENDFIEIELDDQELTYQELLR [R14D] : 3.85
42) SLRENDFIEIELDRNELTYQELLR [Q15N] : 3.35
43) SLCENDFIEIELDRQELTYQELLR [R3C] : 3.14
44) SLRENDFIEIELDRQELTYQTLLR [E21T] : 2.09
45) SLWENDFIEIELDRQELTYQELLR [R3W] : 2.26
46) SLRENDFIEIELDRQELQYQELLR [T18Q] : 3.37
